Test system: A549
METHOD SUMMARY: Cytotoxicity against Homo sapiens (human) A549 cells after 48 hr by MTT assay
Format: functional, cell-based
MEASUREMENT PARAMETERS: A549, 48 h
Hi! Could you tag entries with IC50 below 8 µM as True, and those at or above as False? Much appreciated.

q: Dear reviewer, please state whether C=CCC(c1ccccc1)c1c(O)ccc2ccccc12 (stereo not drawn) has IC50 strictly beneath 8 µM.
a: False

q: What about COc1cccc2c1C(=O)c1c(O)c3c(c(O)c1C2=O)C[C@@](O)(C(=O)CO)C[C@@H]3O[C@H]1C[C@H](N)[C@H](O)[C@H](C)O1 [DOXORUBICIN] ?
a: True

q: What about C=CCC(c1ccc(C)cc1)c1c(O)ccc2ccccc12 (stereo not drawn) ?
a: True

q: What about C=CCC(c1cccc(F)c1)c1c(O)ccc2ccccc12 (stereo not drawn) ?
a: False

q: What about C=CCC(c1ccc(F)cc1)c1c(O)ccc2ccccc12 (stereo not drawn) ?
a: True

q: What about C=CCC(c1ccc(Cl)cc1)c1c(O)ccc2ccccc12 (stereo not drawn) ?
a: False

q: What about C=CCC(c1ccc(C(C)C)cc1)c1c(O)ccc2ccccc12 (stereo not drawn) ?
a: False
